// data source = ChEMBL document CHEMBL1201862

# Tested on: MCF7
# METHOD: NCI tumour cell line growth inhibition, 48 h
The source made the active and inactive calls. Rule as the data show it: active = GI50 up to about 1.1 µM and inactive = higher.
Form entry, call: pick from Yes (active), No (inactive)

Ask | // return assay outcome for COC1OC(Cc2nnc(C)o2)C(OCc2ccccc2)C(OCc2ccccc2)C1OCc1ccccc1 (centres undefined)
Reply | No

Ask | Answer briefly: the call reported for Nc1nnnn1CCO in this assay.
Reply | No

Ask | // param item: C=C1C(=O)OC2/C=C(\C)CC/C=C(/C)CC(OC(=O)/C(=C/CO)CO)C12 (centres undefined) ; yields the recorded call
Reply | No

Ask | Which result was noted for this molecule in the test: CCO/N=C(/CC)c1ccc(Br)s1
Reply | No

Ask | State the result this test recorded for CCOc1cc(NC(C)=O)ccc1C(=O)NN1C(=O)/C(=C/c2ccco2)N=C1c1ccccc1 .
Reply | No

Ask | Look up the recorded call for COc1ccc(/C=C2\NC(=S)N(CN3CCOCC3)C2=O)cc1 in this test.
Reply | No

Ask | Name the outcome recorded for NS(=O)(=O)c1ccc(NC(=S)NC(=O)Nc2ccc(Cl)c(Cl)c2)cc1 in the assay.
Reply | No

Ask | Entry CC(=O)O[C@H]1[C@@H](OC(C)=O)C(C)(C)/C=C/[C@H](C)C(=O)[C@@]2(OC(C)=O)C[C@@](C)(OC(C)=O)[C@H](OC(C)=O)[C@@H]2[C@H]2OC(=O)CC[C@@]2(OC(=O)c2ccccc2)[C@@H]1OCC(C)C : call = ?
Reply | No

Ask | Record request — test call for COC(=O)C1C/C(=C/N(C)C)C(=S)N1 (centres undefined)
Reply | No

Ask | Short answer needed: outcome of this test for CC1(CCc2ccccc2)CC1(Br)Br (centres undefined) ?
Reply | No

Ask | Field: outcome | Entry: CNC(=O)C(C)NC(=O)C(Cc1ccccc1)NC(=O)OC(C)(C)C (centres undefined)
Reply | No

Ask | Recorded call for C[C@@]12c3c4ccc(C=O)c3Oc3ccc(C=O)c(c31)Oc1c(C=O)ccc(c12)O4 ?
Reply | No

Ask | Outcome logged for COc1ccc(C(c2cc3c(cc2O)OCO3)N2CCOCC2)cc1OC (centres undefined) in this assay:
Reply | No

Ask | Called result for CCOC(=O)c1ccc(C(=O)/C(C#N)=C2\CCCN2C)[nH]1
Reply | No

Ask | Hello, I am checking results. What call was entered for CN(C)Cc1cc(C(=O)/C=C/c2ccccc2Cl)cc(CN(C)C)c1O ?
Reply | No

Ask | # lookup: test call for Cc1ccnc2c1c(=O)c1ccccc1n2C
Reply | No

Ask | Write down the call the test reported for this molecule. Item: CC(C)(C)OC(=O)N(O)[C@@H]1C=C[C@H](n2cnc3c(N)ncnc32)C1
Reply | No

Ask | Which outcome did this test record for the molecule COc1ccc([N+](=O)[O-])cc1[I+]c1cc([N+](=O)[O-])ccc1OC ?
Reply | No

Ask | What outcome does the record of this test show for O=C(NCCCCCCO)c1cccc2cc3ccccc3nc12 ?
Reply | No

Ask | In this assay, the call recorded for Nc1cccc(OCC2CCCN3CCCCC23)c1 (centres undefined) was what?
Reply | No

Ask | Look up the recorded call for CC[C@H](C)C1=C(OC(C)=O)[N@+]2([O-])Oc3ccc(-c4c(OC(C)=O)c(OC(C)=O)c(-c5ccc(OC(C)=O)cc5)c(OC(C)=O)c4OC(C)=O)cc3O[C@]2([C@@H](C)CC)C(=O)N1OC(C)=O in this test.
Reply | No

Ask | Can you look up the reported call for CCCCCCNC(=O)CCC(NC(=O)c1ccc(N(C)Cc2cnc3nc(N)nc(N)c3n2)cc1)C(=O)NCCCCCC (centres undefined) for me?
Reply | No

Ask | Give the logged outcome of this assay for the following molecule: COc1cc(O)c2c(c1)C(=O)c1cc3c(c(O)c1C2=O)C(OC1OC(C)C(OC)C(O)C1OC)C(OC)C(C)(O)C3=O (centres undefined)
Reply | No

Ask | Each molecule tested received a call. Report the one for CCOC(=O)CN1C(=O)c2cc([N+](=O)[O-])cc3cc([N+](=O)[O-])cc(c23)C1=O .
Reply | No

Ask | Please indicate how the test categorized Cc1cc(NS(=O)(=O)c2ccc(Nc3c4ccccc4nc4c(C(=O)NC(CO)(CO)CO)cccc34)cc2)no1 .
Reply | No

Ask | What call does the record list for CCOc1cc2c(cc1O)C(O)C[C@@H]1[C@@H]2CC[C@]2(C)[C@@H](O)CC[C@@H]12 (some centres undefined) ?
Reply | Yes

Ask | Status in this test for Cc1c(F)c(NC(=O)CN(C)C)c2c(=O)cc(-c3ccc(NC(=O)CN(C)C)c(F)c3)oc2c1F ?
Reply | No

Ask | Name the outcome recorded for C1CCNCC1.S=C(S)N1CCCCC1 in the assay.
Reply | No

Ask | Which outcome was entered for the molecule COC(=O)C1=C(N)C2=C(N)Oc3ccccc3C2CC1=C(C#N)C#N (centres undefined) in this test?
Reply | No
